Values from patent US5977319A

study_system: antibody D12 single-chain Fv (VH SEQ ID NO:2, VL SEQ ID NO:12; clone 1C with Ala80-Val80 in the lambda light chain)
assay_overview: Equilibrium dialysis, binding of tritium labelled estradiol to antibody D12
Parameters: species or system human
assay_setup: 22° C., PBS, 20 hr, read-out: dissociation constant for estradiol
pKd: −log10 of the molar value.
observation_type: pKd

>>> result("C[C@]12CC[C@@H]3c4ccc(O)cc4CC[C@H]3[C@@H]1CC[C@@H]2O")
8.43
